For each of the binders below, state its Cyno T-cell Binding 0.2 uM (MFI).
# TARGET_OR_SYSTEM: T1, cynomolgus monkey CD8A on primary cynomolgus monkey CD8+ T cells (cynomolgus monkey, UniProt P01732 23-235 (human entry))
# T1 construct: also called Cyno CD8alpha
# T1 sequence (P01732 other isoform, or with tags, fused parts or gaps limits assumed): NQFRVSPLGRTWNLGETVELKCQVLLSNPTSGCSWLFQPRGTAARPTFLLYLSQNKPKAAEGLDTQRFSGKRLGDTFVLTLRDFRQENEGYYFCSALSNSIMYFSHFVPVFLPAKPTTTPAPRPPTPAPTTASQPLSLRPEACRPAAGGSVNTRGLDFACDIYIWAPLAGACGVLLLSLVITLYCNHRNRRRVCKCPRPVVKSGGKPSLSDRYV
# ASSAY_PROCEDURE: flow cytometry, cyno CD8+ T cells, 0.2 uM FN3

Completed entries (count: 3):
| BINDER | REPORTED_ENDPOINT | RECORDED_VALUE |
| --- | --- | --- |
| P282FR9P1361_F1 (designed binder, FN3 domain) LPAPKNLVVSRVTEDSARLSWTAPDAAFDSFGIWYAEYGYSGEAIVLTVPGSERSYDLTGLKPGTEYDVAIWGVKGGVRSYPLSAIFTT | Cyno T-cell Binding 0.2 uM (MFI) | 1390 MFI |
| P282FR9P1361_F11 (designed binder, FN3 domain) LPAPKNLVVSRVTEDSARLSWTAPDAAFDSFGIWYREYGGSGEAIVLTVPGSERSYDLTGLKPGTEYDVAIWGVKGGVRSYPLSAIFTT | Cyno T-cell Binding 0.2 uM (MFI) | 384 MFI |
| P282BR9P1357_H3 (designed binder, FN3 domain) LPAPKNLVVSRVTEDSARLSWKKREYQDPGFDSFLIQYQESEKVGEAIVLTVPGSERSYDLTGLKPGTEYTVSIYGVDVKWEGNRPVASNPLSAIFTT | Cyno T-cell Binding 0.2 uM (MFI) | 5700 MFI |

--- query ---
Q) If you can, please state the reported Cyno T-cell Binding 0.2 uM (MFI) value of P282DR9P1359_E8 (designed binder, FN3 domain) LPAPKNLVVSRVTEDSARLSWTAPDAAFDSFQIAYPEWPVIGEAIVLTVPGSERSYDLTGLKPGTEYWVIIQGVKGGYTSWPLSAIFTT .
A) 16900 MFI
